- test-name: Metabolic stability in mouse plasma assessed as parent compound remaining after 120 mins
- Assay type: ADME, cell-free
- run-parameters: read-out: Stability
value-type: remaining at 2 h

Query: remaining at 2 h; subject: CCN(CC)CC.NC(=O)c1ccc(-c2cc(C(=O)O)cc(-n3cc(-c4ccc(C(F)(F)F)cc4)nn3)c2)cc1
94 to 100%

---

- target-of-assay: Sodium-dependent serotonin transporter (Homo sapiens, UniProt P31645)
- Sequence (P31645 whole entry): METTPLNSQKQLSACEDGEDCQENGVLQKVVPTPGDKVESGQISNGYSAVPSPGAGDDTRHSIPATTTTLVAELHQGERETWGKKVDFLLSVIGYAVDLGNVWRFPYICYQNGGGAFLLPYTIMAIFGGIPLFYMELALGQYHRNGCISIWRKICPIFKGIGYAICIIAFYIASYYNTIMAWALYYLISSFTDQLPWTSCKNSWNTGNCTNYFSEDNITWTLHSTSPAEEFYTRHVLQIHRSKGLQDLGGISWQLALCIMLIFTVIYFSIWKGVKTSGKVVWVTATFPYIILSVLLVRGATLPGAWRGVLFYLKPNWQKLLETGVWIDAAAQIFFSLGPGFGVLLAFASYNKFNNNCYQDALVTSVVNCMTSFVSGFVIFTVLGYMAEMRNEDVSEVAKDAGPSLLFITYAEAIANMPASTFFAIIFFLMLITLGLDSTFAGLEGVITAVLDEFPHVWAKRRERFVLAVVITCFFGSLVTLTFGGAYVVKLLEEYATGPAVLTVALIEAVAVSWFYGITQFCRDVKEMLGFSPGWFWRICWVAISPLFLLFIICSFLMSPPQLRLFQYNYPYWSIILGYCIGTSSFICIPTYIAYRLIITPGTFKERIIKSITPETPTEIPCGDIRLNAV
value-type: pKi
Please note pKi is a logarithmic value: minus log10 of concentration in mol/L. Answer with that number alone.

Query: pKi; subject: CC(C)(C)OC(=O)NCCCCCCn1cc(CCCCN2CCC(c3ccc(-c4cc(C(=O)O)cc5cc(-c6ccc(C(F)(F)F)cc6)ccc45)cc3)CC2)nn1
5.68

---

- target-of-assay: 5-hydroxytryptamine receptor 1A (Homo sapiens)
- Sequence (P08908 whole entry): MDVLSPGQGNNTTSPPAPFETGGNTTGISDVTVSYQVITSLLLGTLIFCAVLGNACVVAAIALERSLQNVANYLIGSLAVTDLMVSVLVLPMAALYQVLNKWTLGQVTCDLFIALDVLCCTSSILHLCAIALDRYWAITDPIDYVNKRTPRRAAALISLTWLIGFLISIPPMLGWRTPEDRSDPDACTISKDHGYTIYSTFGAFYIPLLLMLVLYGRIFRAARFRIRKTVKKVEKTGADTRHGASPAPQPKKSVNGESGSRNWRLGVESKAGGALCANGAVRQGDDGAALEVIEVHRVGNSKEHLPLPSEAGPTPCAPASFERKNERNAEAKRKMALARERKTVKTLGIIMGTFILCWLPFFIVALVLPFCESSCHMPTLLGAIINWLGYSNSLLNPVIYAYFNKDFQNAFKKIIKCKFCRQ
value-type: pKi
Please note pKi is a logarithmic value: minus log10 of concentration in mol/L. Answer with that number alone.

Query: pKi; subject: NCCCCCCn1cc(CCCCN2CCC(c3ccc(-c4cc(C(=O)O)cc5cc(-c6ccc(C(F)(F)F)cc6)ccc45)cc3)CC2)nn1
5.25

---

Quick reference for pIC50 among some molecules
- target-of-assay: P2Y purinoceptor 14 (Homo sapiens, UniProt Q15391)
Please note pIC50 is a logarithmic value: minus log10 of concentration in mol/L. Answer with that number alone.

Query: pIC50; subject: O=C(O)c1cc(O)cc(-n2cc(-c3ccc(C(F)(F)F)cc3)nn2)c1
4.79

Same lookup for CC(C)(C)NC(=O)c1ccc(-c2cc(C(=O)O)cc(-n3cc(-c4ccc(C(F)(F)F)cc4)nn3)c2)cc1 , please.
5.12

Same lookup for NCCCCNS(=O)(=O)c1ccc(-c2cc(C(=O)O)cc(-n3cc(-c4ccc(C(F)(F)F)cc4)nn3)c2)s1 , please.
5.66

Same lookup for CC(C)(C)OC(=O)NCCCCNS(=O)(=O)c1ccc(-c2cc(C(=O)O)cc(-n3cc(-c4ccc(C(F)(F)F)cc4)nn3)c2)s1 , please.
4.87

Same lookup for CC(C)(C)OC(=O)NCCCNS(=O)(=O)c1ccc(-c2cc(C(=O)O)cc(-n3cc(-c4ccc(C(F)(F)F)cc4)nn3)c2)s1 , please.
5.03

Same lookup for CC(C)(C)OC(=O)NCCCNC(=O)c1ccc(-c2cc(C(=O)O)cc(-n3cc(-c4ccc(C(F)(F)F)cc4)nn3)c2)s1 , please.
5.64

Same lookup for NC(=O)c1ccc(-c2cc(C(=O)O)cc(-n3cc(-c4ccc(C(F)(F)F)cc4)nn3)c2)o1 , please.
5.51

Same lookup for NCCCCCCn1cc(CCCCN2CCC(c3ccc(-c4cc(C(=O)O)cc5cc(-c6ccc(C(F)(F)F)cc6)ccc45)cc3)CC2)nn1 , please.
7.60

Same lookup for NC(=O)c1ccc(-c2cc(C(=O)O)cc(-n3cc(-c4ccc(C(F)(F)F)cc4)nn3)c2)cn1 , please.
5.85

Same lookup for NS(=O)(=O)c1ccc(-c2cc(C(=O)O)cc(-n3cc(-c4ccc(C(F)(F)F)cc4)nn3)c2)cc1 , please.
6.22

Same lookup for CC(=O)NCCCCCCn1cc(CCCCN2CCC(c3ccc(-c4cc(C(=O)O)cc5cc(-c6ccc(C(F)(F)F)cc6)ccc45)cc3)CC2)nn1 , please.
7.08

---

- target-of-assay: D(2) dopamine receptor (Homo sapiens)
- Sequence (P14416 whole entry): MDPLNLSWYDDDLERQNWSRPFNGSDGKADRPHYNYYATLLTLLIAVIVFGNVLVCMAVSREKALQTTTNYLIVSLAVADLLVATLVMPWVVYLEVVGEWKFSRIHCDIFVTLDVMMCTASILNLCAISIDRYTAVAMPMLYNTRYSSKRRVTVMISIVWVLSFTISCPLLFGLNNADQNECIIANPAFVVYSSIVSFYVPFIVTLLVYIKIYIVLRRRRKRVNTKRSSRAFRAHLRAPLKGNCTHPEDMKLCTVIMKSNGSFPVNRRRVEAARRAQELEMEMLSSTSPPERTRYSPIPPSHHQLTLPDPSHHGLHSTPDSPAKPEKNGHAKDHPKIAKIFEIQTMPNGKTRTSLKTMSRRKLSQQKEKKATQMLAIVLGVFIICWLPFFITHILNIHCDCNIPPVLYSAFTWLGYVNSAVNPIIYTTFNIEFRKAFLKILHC
- test-name: Displacement of [3H]N-methylspiperone from human dopamine D2 receptor expressed in HEK293T cell membranes after 90 mins by scintillation counting method
value-type: Ki (µM)
# value in µM; strip the unit string

Which Ki is reported with D(2) dopamine receptor (Homo sapiens) for this entry: NCCCCCCn1cc(CCCCN2CCC(c3ccc(-c4cc(C(=O)O)cc5cc(-c6ccc(C(F)(F)F)cc6)ccc45)cc3)CC2)nn1 ?
8.21

---

- target-of-assay: Translocator protein (Rattus norvegicus)
- Sequence (P16257 whole entry, looked up): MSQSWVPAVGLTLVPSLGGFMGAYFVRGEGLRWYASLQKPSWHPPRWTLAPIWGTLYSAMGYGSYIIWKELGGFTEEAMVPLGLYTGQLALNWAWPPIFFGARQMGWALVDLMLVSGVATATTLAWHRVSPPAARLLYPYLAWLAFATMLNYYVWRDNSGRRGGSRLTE
value-type: Ki (µM)
# value in µM; strip the unit string

Which Ki is reported with Translocator protein (Rattus norvegicus) for this entry: CC(C)(C)OC(=O)NCCCCCCn1cc(CCCCN2CCC(c3ccc(-c4cc(C(=O)O)cc5cc(-c6ccc(C(F)(F)F)cc6)ccc45)cc3)CC2)nn1 ?
5.6

---

- target-of-assay: UniProtKB Q15391
- Sequence (Q15391 whole entry): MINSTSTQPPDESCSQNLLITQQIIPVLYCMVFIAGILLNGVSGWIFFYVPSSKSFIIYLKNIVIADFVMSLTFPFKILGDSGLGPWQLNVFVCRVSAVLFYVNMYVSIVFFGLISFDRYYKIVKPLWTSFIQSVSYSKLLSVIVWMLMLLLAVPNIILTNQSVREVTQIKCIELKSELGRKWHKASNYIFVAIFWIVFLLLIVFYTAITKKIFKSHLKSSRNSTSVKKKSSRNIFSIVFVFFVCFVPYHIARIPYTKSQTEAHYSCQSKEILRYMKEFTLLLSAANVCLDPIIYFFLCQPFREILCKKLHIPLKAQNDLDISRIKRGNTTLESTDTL
value-type: IC50 (nM)
# value in nM; strip the unit string

Some solved entries appear below for comparison.
{"columns": ["molecular-string", "target-of-assay", "IC50, nM"],
 "data": [
  ["NCCCNC(=O)c1cc(-c2cc(C(=O)O)cc(-n3cc(-c4ccc(C(F)(F)F)cc4)nn3)c2)cs1", "UniProtKB Q15391", 1750],
  ["NC(=O)c1ccc(-c2cc(C(=O)O)cc(-n3cc(-c4ccc(C(F)(F)F)cc4)nn3)c2)nc1", "UniProtKB Q15391", 516]
]}

Query: IC50; subject: CNC(=O)c1ccc(-c2cc(C(=O)O)cc(-n3cc(-c4ccc(C(F)(F)F)cc4)nn3)c2)cc1
563

Same lookup for O=C(O)c1cc(-c2ccc(S(=O)(=O)NCCCCO)s2)cc(-n2cc(-c3ccc(C(F)(F)F)cc3)nn2)c1 , please.
8420

Same lookup for O=C(O)c1cc(Br)cc(-n2cc(-c3ccc(C(F)(F)F)cc3)nn2)c1 , please.
26800

Same lookup for NC(=O)c1ccc(-c2cc(-c3nnn[nH]3)cc(-n3cc(-c4ccc(C(F)(F)F)cc4)nn3)c2)cc1 , please.
2430

Same lookup for O=C(O)c1cc(-c2ccc(CN3CCNCC3)s2)cc(-n2cc(-c3ccc(C(F)(F)F)cc3)nn2)c1 , please.
1960

Same lookup for NCCCNC(=O)c1ccc(-c2cc(C(=O)O)cc(-n3cc(-c4ccc(C(F)(F)F)cc4)nn3)c2)o1 , please.
10900

---

- target-of-assay: D(3) dopamine receptor (Homo sapiens)
- Sequence (P35462 whole entry): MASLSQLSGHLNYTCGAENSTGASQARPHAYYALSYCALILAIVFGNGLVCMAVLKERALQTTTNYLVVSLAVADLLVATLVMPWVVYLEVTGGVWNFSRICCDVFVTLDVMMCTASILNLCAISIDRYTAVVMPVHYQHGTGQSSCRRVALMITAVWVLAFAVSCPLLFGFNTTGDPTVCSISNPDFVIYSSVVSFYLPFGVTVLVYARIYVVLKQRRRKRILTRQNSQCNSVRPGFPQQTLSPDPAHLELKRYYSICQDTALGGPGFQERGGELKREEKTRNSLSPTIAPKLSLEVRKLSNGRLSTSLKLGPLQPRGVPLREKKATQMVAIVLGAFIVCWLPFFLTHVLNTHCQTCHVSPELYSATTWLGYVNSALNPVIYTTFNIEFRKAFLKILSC
value-type: Ki (µM)
# value in µM; strip the unit string

Query: Ki; subject: NCCCCCCn1cc(CCCCN2CCC(c3ccc(-c4cc(C(=O)O)cc5cc(-c6ccc(C(F)(F)F)cc6)ccc45)cc3)CC2)nn1
1.6

---

- System: HepG2
- test-name: Cytotoxicity against human HepG2 cells
- Type: cell-based
value-type: CC50

Which CC50 is reported with HepG2 for this entry: CCN(CC)CC.NC(=O)c1ccc(-c2cc(C(=O)O)cc(-n3cc(-c4ccc(C(F)(F)F)cc4)nn3)c2)cc1 ?
> 30 µM

---

- test-name: Metabolic stability in human plasma assessed as parent compound remaining after 120 mins
- Format: ADME, cell-free
- run-parameters: read-out: Stability
value-type: remaining at 2 h

Query: remaining at 2 h; subject: CCN(CC)CC.NC(=O)c1ccc(-c2cc(C(=O)O)cc(-n3cc(-c4ccc(C(F)(F)F)cc4)nn3)c2)cc1
94 to 100%

---

- target-of-assay: Sodium-dependent dopamine transporter (Homo sapiens)
- Sequence (Q01959 whole entry): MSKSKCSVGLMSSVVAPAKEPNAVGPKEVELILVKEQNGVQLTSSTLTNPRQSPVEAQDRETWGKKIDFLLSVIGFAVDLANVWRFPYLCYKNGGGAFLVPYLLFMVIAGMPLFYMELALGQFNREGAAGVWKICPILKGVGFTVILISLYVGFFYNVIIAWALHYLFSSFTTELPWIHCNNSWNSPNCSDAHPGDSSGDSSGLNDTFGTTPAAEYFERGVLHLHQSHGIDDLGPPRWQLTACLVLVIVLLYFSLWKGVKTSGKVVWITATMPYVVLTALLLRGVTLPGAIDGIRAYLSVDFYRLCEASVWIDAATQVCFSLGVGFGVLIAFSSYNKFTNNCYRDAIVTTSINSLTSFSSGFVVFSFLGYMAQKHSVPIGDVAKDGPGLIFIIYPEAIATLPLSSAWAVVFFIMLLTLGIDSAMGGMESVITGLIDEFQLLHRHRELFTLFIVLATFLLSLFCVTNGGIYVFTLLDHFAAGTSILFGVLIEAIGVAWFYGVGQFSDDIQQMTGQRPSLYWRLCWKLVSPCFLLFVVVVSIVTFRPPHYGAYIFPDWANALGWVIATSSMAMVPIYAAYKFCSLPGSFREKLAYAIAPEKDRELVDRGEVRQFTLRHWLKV
value-type: Ki (nM)
# value in nM; strip the unit string

Which Ki is reported with Sodium-dependent dopamine transporter (Homo sapiens) for this entry: NCCCCCCn1cc(CCCCN2CCC(c3ccc(-c4cc(C(=O)O)cc5cc(-c6ccc(C(F)(F)F)cc6)ccc45)cc3)CC2)nn1 ?
1070

---

- target-of-assay: P2Y purinoceptor 14 (Homo sapiens)
- Sequence (Q15391 whole entry): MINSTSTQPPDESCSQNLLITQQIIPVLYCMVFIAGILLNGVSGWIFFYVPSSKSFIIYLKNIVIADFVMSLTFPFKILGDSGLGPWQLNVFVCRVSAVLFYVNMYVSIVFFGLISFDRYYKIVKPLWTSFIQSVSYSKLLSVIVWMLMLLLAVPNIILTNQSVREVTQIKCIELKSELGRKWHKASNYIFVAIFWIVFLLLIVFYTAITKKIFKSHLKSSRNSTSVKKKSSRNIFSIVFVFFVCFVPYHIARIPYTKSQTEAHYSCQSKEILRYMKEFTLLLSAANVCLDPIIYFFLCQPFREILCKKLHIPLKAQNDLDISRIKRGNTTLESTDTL
value-type: IC50 (µM)
# value in µM; strip the unit string

Some solved entries appear below for comparison.
{"columns": ["molecular-string", "IC50, µM"],
 "data": [
  ["CC(C)(C)OC(=O)N1CCN(C(=O)c2ccc(-c3cc(C(=O)O)cc(-n4cc(-c5ccc(C(F)(F)F)cc5)nn4)c3)s2)CC1", 53],
  ["CC(C)(C)OC(=O)NCCCCCCn1cc(CCCCN2CCC(c3ccc(-c4cc(C(=O)O)cc5cc(-c6ccc(C(F)(F)F)cc6)ccc45)cc3)CC2)nn1", 0.133],
  ["C#CCCCCN1CCC(c2ccc(-c3cc(C(=O)O)cc4cc(-c5ccc(C(F)(F)F)cc5)ccc34)cc2)CC1", 0.763]
]}

Query: IC50; subject: CC(C)(C)OC(=O)NCCNS(=O)(=O)c1ccc(-c2cc(C(=O)O)cc(-n3cc(-c4ccc(C(F)(F)F)cc4)nn3)c2)s1
5.92

Same lookup for NCCNS(=O)(=O)c1ccc(-c2cc(C(=O)O)cc(-n3cc(-c4ccc(C(F)(F)F)cc4)nn3)c2)s1 , please.
2.26

Same lookup for CC(C)(C)NC(=O)c1ccc(-c2cc(-c3nnn[nH]3)cc(-n3cc(-c4ccc(C(F)(F)F)cc4)nn3)c2)cc1 , please.
20.7

Same lookup for NC(=O)c1cnc(-c2cc(C(=O)O)cc(-n3cc(-c4ccc(C(F)(F)F)cc4)nn3)c2)cn1 , please.
0.566

Same lookup for O=C(O)c1cc(-c2ccc(C(=O)N3CCNCC3)s2)cc(-n2cc(-c3ccc(C(F)(F)F)cc3)nn2)c1 , please.
12.6

Same lookup for O=C(O)c1cc(-c2ccc(S(=O)(=O)N3CCNCC3)cc2)cc(-n2cc(-c3ccc(C(F)(F)F)cc3)nn2)c1 , please.
1.64

Same lookup for CC(C)(C)OC(=O)N1CCN(Cc2ccc(-c3cc(C(=O)O)cc(-n4cc(-c5ccc(C(F)(F)F)cc5)nn4)c3)s2)CC1 , please.
67.2

Same lookup for O=C(O)c1cc(-c2ccc(S(=O)(=O)N3CCNCC3)s2)cc(-n2cc(-c3ccc(C(F)(F)F)cc3)nn2)c1 , please.
1.51

Same lookup for CCCNC(=O)c1ccc(-c2cc(C(=O)O)cc(-n3cc(-c4ccc(C(F)(F)F)cc4)nn3)c2)cc1 , please.
1.49

Same lookup for NCCCNC(=O)c1csc(-c2cc(C(=O)O)cc(-n3cc(-c4ccc(C(F)(F)F)cc4)nn3)c2)c1 , please.
0.735

Same lookup for CC(C)(C)OC(=O)N1CCN(S(=O)(=O)c2ccc(-c3cc(C(=O)O)cc(-n4cc(-c5ccc(C(F)(F)F)cc5)nn4)c3)s2)CC1 , please.
54.7

Same lookup for NS(=O)(=O)c1ccc(-c2cc(C(=O)O)cc(-n3cc(-c4ccc(C(F)(F)F)cc4)nn3)c2)s1 , please.
6.44

Same lookup for FC(F)(F)c1ccc(-c2cn(-c3cc(-c4ccc(C5CCNCC5)cc4)cc(-c4nnn[nH]4)c3)nn2)cc1 , please.
0.958

Data provenance: ChEMBL document CHEMBL4184336
